Where these numbers come from: the supplement of paper PMC3334620

Biological target: Stp1 (UniProt B3LFK1)
Sequence: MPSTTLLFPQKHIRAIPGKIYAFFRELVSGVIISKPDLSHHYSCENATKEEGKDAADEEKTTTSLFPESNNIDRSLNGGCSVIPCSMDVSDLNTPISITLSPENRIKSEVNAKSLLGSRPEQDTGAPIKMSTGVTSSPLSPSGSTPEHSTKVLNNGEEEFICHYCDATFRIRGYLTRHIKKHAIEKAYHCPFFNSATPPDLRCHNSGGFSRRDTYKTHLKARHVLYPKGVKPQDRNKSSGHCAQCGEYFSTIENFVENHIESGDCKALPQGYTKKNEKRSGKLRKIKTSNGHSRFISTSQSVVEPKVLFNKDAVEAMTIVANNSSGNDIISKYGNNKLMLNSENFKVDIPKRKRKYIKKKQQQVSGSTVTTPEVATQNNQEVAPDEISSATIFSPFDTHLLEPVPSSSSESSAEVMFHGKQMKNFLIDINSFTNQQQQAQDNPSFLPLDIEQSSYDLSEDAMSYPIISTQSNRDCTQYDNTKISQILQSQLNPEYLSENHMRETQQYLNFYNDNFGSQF
Experiment: PBM E-score (8-mer binding enrichment) (E-score (-0.5 to 0.5)); higher = stronger / more preferred TF binding
Conditions: protein concentration: 200 nM; construct: GST-full length
Over roughly 33,000 sequences, “E-score (-0.5 to 0.5)” has its median near -0.016; the highest 2% begin near 0.32. The entries come from a sample that favours the highest values as a whole.
Respond with fulfilled for PBM E-score values of 0.01 and above, not fulfilled for values below.

Here are 10 sequences together with their reported answers.
>>> print(df.to_string())
   sequence_input          class
0        ATACCTGG  not fulfilled
1        GATGGCAC      fulfilled
2        TCCGCTCA  not fulfilled
3        GCAGCGCA  not fulfilled
4        CCACGGCC      fulfilled
5        CATTGCCC      fulfilled
6        ATATGGGC  not fulfilled
7        CTTTTCGA      fulfilled
8        GGGCTAGA  not fulfilled
9        GACCGAGC  not fulfilled

IN: hey, is PBM E-score for this one >= 0.01? "AACCGTGG"
OUT: not fulfilled

IN: hey, is PBM E-score for this one >= 0.01? "CCACGGAA"
OUT: fulfilled

IN: hey, is PBM E-score for this one >= 0.01? "ATCTTCAT"
OUT: not fulfilled

IN: hey, is PBM E-score for this one >= 0.01? "CCTTTTGC"
OUT: fulfilled

IN: hey, is PBM E-score for this one >= 0.01? "CCTCCCAC"
OUT: not fulfilled

IN: hey, is PBM E-score for this one >= 0.01? "ACCCGTGG"
OUT: not fulfilled

IN: hey, is PBM E-score for this one >= 0.01? "CAAACTTG"
OUT: not fulfilled

IN: hey, is PBM E-score for this one >= 0.01? "ACCGCTCA"
OUT: fulfilled

====

Molecular target: Stp1 (UniProt B3LFK1)
Sequence: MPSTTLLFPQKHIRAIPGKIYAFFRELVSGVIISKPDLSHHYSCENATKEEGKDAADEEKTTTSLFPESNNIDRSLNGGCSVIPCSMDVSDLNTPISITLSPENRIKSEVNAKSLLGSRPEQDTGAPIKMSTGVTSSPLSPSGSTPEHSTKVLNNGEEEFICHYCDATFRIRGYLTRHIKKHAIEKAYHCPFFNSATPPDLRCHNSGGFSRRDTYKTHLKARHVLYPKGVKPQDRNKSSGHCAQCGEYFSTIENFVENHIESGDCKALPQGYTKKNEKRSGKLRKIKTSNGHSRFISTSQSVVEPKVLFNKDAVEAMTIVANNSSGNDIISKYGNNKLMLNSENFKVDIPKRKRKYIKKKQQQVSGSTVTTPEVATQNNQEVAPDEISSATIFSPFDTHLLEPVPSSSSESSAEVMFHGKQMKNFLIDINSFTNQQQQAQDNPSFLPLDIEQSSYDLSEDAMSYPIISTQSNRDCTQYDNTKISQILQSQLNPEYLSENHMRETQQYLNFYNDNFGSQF
Test: PBM E-score (8-mer binding enrichment) (E-score (-0.5 to 0.5)); higher = stronger / more preferred TF binding
Details: protein concentration: 200 nM; construct: GST-full length
Over roughly 33,000 sequences, “E-score (-0.5 to 0.5)” has its median near -0.016; the highest 2% begin near 0.32. For the sample, the highest values were picked, then their nearest neighbours and some sequences at random.
Just so you know, the groups by PBM E-score go like this: c1: < -0.0008; c2: ≥ -0.0008 and < 0.2; c3: ≥ 0.2

Here are 5 sequences together with their reported answers.
In [3]: df
Out[3]:
   sequence_input  class
0        TACAGAAA     c3
1        GAAATTTC     c1
2        CGGCAGAC     c2
3        CGGCAGCA     c3
4        AAGCCGCC     c2

IN: Lab log: "CGGCAGAA" — assign PBM E-score category
OUT: c3

IN: Lab log: "GTGGTGTA" — assign PBM E-score category
OUT: c2

IN: Lab log: "CACAGAAA" — assign PBM E-score category
OUT: c1

IN: Lab log: "CAGCCGCC" — assign PBM E-score category
OUT: c2

IN: Lab log: "GGGCAGCA" — assign PBM E-score category
OUT: c1

====

A collection of sequences and their measured PBM E-score
Biological target: Stp1 (UniProt B3LFK1)
Sequence: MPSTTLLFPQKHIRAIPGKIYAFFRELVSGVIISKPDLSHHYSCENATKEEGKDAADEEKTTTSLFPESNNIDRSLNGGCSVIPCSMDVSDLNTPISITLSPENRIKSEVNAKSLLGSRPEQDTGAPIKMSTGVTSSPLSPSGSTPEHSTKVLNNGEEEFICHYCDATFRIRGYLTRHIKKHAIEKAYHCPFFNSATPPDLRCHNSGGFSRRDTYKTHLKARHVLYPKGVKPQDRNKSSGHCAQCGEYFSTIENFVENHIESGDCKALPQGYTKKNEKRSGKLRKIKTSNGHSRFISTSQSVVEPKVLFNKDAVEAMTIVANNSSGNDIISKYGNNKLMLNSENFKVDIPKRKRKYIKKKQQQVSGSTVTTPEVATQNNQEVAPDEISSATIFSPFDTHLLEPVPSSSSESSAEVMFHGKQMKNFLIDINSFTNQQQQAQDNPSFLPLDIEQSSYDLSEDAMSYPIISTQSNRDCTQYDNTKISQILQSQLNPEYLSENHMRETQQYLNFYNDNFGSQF
Assay: PBM E-score (8-mer binding enrichment) (E-score (-0.5 to 0.5)); higher = stronger / more preferred TF binding
Settings: protein concentration: 200 nM; construct: GST-full length
The full ranking holds about 33,000 sequences; the median of “E-score (-0.5 to 0.5)” is about -0.016, and the highest 2% start at about 0.32. The full list was thinned out, with the highest values kept by preference.
Form rule: numeric answer, no unit written next to it.

Worked examples, 5 sequences total:
   sequence_input        subject_of_test    value
0        CAGCGATG  Stp1 (UniProt B3LFK1)  -0.0761
1        AGGGCGGC  Stp1 (UniProt B3LFK1)     0.14
2        GCCGCCAC  Stp1 (UniProt B3LFK1)   0.0605
3        AGGGCGCA  Stp1 (UniProt B3LFK1)    0.205
4        AGGGTAAC  Stp1 (UniProt B3LFK1)   -0.165

IN: Quick check: PBM E-score of "CGGCCTTA" ?
OUT: 0.293

IN: Quick check: PBM E-score of "CAATAAAG" ?
OUT: 0.217

IN: Quick check: PBM E-score of "CGGGCGCC" ?
OUT: 0.269

IN: Quick check: PBM E-score of "GCCGCCGA" ?
OUT: 0.316

====

Target: Stp1 (UniProt B3LFK1)
Sequence: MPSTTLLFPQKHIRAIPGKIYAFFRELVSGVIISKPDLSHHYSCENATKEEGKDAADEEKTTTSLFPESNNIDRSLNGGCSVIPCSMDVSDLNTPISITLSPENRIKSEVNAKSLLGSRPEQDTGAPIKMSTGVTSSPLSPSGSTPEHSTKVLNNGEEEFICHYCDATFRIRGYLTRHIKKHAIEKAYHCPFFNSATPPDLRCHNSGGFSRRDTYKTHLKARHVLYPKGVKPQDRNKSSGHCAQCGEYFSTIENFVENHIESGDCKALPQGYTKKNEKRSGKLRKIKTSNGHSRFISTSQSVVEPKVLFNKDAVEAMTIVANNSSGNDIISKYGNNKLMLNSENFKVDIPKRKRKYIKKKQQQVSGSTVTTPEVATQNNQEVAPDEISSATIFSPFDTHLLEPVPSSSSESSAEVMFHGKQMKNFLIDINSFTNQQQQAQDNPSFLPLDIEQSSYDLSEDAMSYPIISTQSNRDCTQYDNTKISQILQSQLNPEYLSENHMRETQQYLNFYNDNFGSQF
Assay: PBM E-score (8-mer binding enrichment) (E-score (-0.5 to 0.5)); higher = stronger / more preferred TF binding
Details: protein concentration: 200 nM; construct: GST-full length
Whole data set: some 33,000 sequences, median “E-score (-0.5 to 0.5)” near -0.016, cut for the highest 2% near 0.32. This is one part of a sample in which the highest values are shown more often than they occur.
Just so you know, the groups by PBM E-score go like this: low bin: < -0.01; mid bin: ≥ -0.01 and < 0.2; high bin: ≥ 0.2

Here are 3 sequences together with their reported answers.
In [3]: df
Out[3]:
   sequence_input     class
0        CCGCCTAC   low bin
1        ACGGCAAG  high bin
2        AGGGCAAA   mid bin

IN: Lab log: "GGATCTAC" — assign PBM E-score category
OUT: low bin

IN: Lab log: "AAGGCAGT" — assign PBM E-score category
OUT: mid bin

IN: Lab log: "GCGCCGAC" — assign PBM E-score category
OUT: high bin
